Exercise: for every item that follows, state its recorded inhibition.
Test name: M. tuberculosis growth inhibition, HTS (AID 449762);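 further: bacterial growth assessed after seven days of incubation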
Applied conditions: M. tuberculosis H37Rv growth inhibition, 7H9 media; at 25 µM; active compounds read high
Screen size: about 330,000 compounds; about 1,900 (0.58%) were called active. Not shown: some 4% with an inconclusive outcome. A selection follows. Measured potencies and affinities stand elsewhere.

Given item O=S(Cc1ccc(Br)cc1)Cc1nnc(SCc2ccc(Br)cc2)n1-c1ccccc1 (stereo not given) , the value recorded as its inhibition is 57% (inactive)

Field inhibition (entry C=CCCC(=O)N1CCCC(C(=O)c2cccc(OC)c2)C1 (stereo not given) ) reads 5.01% (inactive)

Reported inhibition ( O=C(Oc1cccc(OC(=O)c2ccco2)c1)c1ccco1 ) = 14.2% (inactive)

inhibition recorded for this compound, O=S(Cc1ccc(Br)cc1)Cc1nnc(SCc2c(Cl)cccc2Cl)n1-c1ccccc1 (stereo not given) , is -2.91% (inactive)

Reported inhibition ( COc1cc(Cl)c(C)cc1NC(=O)COC(=O)C(NS(=O)(=O)c1ccc(Cl)cc1)C(C)O (stereo not given) ) = -9.26% (inactive)

Form: compound = CC1=CC(C)(C)Nc2ccc(OC(=O)c3ccco3)cc21 ; inhibition = 4.65% (inactive)

Please fill in: inhibition reported for CCCn1nnnc1NC(=O)c1cc(Br)ccc1OC = 14.5% (inactive)

Short answer for Cc1ccc(S(=O)(=O)N(C)CC(=O)Nc2ccc3c(c2)OCO3)cc1 : inhibition was -3.43% (inactive)

// Cc1ccc(NC(=O)COC(=O)C(NS(=O)(=O)c2ccc(Cl)cc2)C(C)O)cc1 (stereo not given) : inhibition value = -2.52% (inactive)

// sample CC[C@H](C)[C@H](NC(N)=O)C(=O)NCCc1ccc(Cl)cc1Cl , its inhibition was -2.03% (inactive)

====

Test name: M. tuberculosis growth inhibition, HTS (AID 449762);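 further: bacterial growth assessed after seven days of incubation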
Applied conditions: M. tuberculosis H37Rv growth inhibition, 7H9 media; at 25 µM; active compounds read high
Hit rate of the full screen: of about 330,000 compounds, about 1,900 (0.58%) were called active. Inconclusive results (about 4%) are left out. These entries were drawn from the full list. Entries with a potency or affinity are not part of this list.
Exercise: for every item that follows, state its recorded inhibition.
Numeric only. Scale: %

The molecule listed as CC(=O)c1ccc(NC(=O)C(C)OC(=O)c2cccc(-n3cnnn3)c2)cc1 (stereo not given) has a reported inhibition of -2.06

Please fill in: inhibition reported for Cc1ccccc1C(=O)Nc1c(C(=O)N(CCN(C)C)Cc2ccco2)oc2ccccc12 = 13.6

Record O=C(CSc1ccc(Br)cc1)N1CCN(C(=O)c2ccco2)CC1 . Reported inhibition: 2.56

Per the record, COC(=O)CSc1nc(-c2cccs2)ccc1C#N has inhibition of 14

The molecule identified as CC(C)Oc1ccc(C(=O)Nc2ccc(N3CCN(C(=O)c4ccco4)CC3)cc2)cc1 registered its inhibition at 0.01

====

Test name: M. tuberculosis growth inhibition, HTS (AID 449762);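 further: bacterial growth assessed after seven days of incubation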
Applied conditions: M. tuberculosis H37Rv growth inhibition, 7H9 media; at 25 µM; active compounds read high
About 1,900 (0.58%) of roughly 330,000 compounds were called active. Another 4% or so got no clear call; they are omitted. Only a sample is shown. Entries with a potency or affinity are not part of this list.
Kindly state inhibition for each of the entries shown.
Answer in %, number only, no unit symbol.

inhibition reported for this compound Cc1ccc(CN2CCC(c3nc4ccc(Cl)cc4[nH]3)CC2)cc1 : 2.51

inhibition measured on Cc1cc(C(=O)O/N=C(\N)c2ccc(C(C)(C)C)cc2)no1 = 0.64

Lab note: measured inhibition of O=C(COc1ccc([N+](=O)[O-])cc1)N/N=C/c1cc([N+](=O)[O-])ccc1N1CCOCC1 was 3.18

Query COc1cc(CN2CCC(n3nccc3NC(=O)CCCc3ccccc3)CC2)ccc1F yields inhibition of -1.97

Quick note, inhibition for COc1ccc(OCCOc2cccc(C=C3C(=O)NC(=O)NC3=O)c2)cc1 landed at 21.3

Hey, just so you know, these numbers are from PubChem BioAssay AID449762.
